TESTED_SYSTEM: Blk (Homo sapiens, UniProt P51451)
Sequence (P51451 whole entry, species assumed): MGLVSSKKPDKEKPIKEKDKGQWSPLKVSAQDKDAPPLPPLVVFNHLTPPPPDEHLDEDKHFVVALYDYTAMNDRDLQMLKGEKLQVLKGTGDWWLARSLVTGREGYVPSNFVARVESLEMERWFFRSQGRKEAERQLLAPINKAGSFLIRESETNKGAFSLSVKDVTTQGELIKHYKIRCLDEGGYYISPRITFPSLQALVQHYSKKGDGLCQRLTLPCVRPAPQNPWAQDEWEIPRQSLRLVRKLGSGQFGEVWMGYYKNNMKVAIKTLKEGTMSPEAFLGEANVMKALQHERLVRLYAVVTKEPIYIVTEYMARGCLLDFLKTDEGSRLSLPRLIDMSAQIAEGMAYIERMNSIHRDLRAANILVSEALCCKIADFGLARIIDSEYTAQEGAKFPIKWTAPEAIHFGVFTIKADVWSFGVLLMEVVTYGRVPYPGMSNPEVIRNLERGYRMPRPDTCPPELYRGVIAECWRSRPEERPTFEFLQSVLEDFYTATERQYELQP
pIC50: −log10 of the molar value.
MEASURED_ENDPOINT: pIC50

>>> obs_value("COc1cc2c(Nc3ccc(Cl)c(Cl)c3F)ncnc2cc1OC[C@@H]1C[C@@H]2CN(C)C[C@@H]2C1 [XL-647]")
7.82

====

PROTOCOL_NOTES: in vivo
APPLIED_CONDITIONS: rat, po, 600 mg/kg
MEASURED_ENDPOINT: AUC(0-t) (ng·h/mL)

>>> obs_value("COc1cc2c(Nc3ccc(Cl)c(Cl)c3F)ncnc2cc1OC[C@@H]1C[C@@H]2CN(C)C[C@@H]2C1")
41200

====

PROTOCOL_NOTES: in vivo
APPLIED_CONDITIONS: rat, po, 3 mg/kg
MEASURED_ENDPOINT: AUC(0-t) (ng·h/mL)

>>> obs_value("COc1cc2c(Nc3ccc(Cl)c(Cl)c3F)ncnc2cc1OC[C@@H]1C[C@@H]2CN(C)C[C@@H]2C1")
776

====

PROTOCOL_NOTES: in vivo
APPLIED_CONDITIONS: rat, po, 1 mg/kg
MEASURED_ENDPOINT: Cmax (ng/mL)

>>> obs_value("COc1cc2c(Nc3ccc(Cl)c(Cl)c3F)ncnc2cc1OC[C@@H]1C[C@@H]2CN(C)C[C@@H]2C1 [XL-647]")
12.7

====

PROTOCOL_NOTES: in vivo
APPLIED_CONDITIONS: female, monkey, po, 6 mg/kg
MEASURED_ENDPOINT: Cmax (ng/mL)

>>> obs_value("COc1cc2c(Nc3ccc(Cl)c(Cl)c3F)ncnc2cc1OC[C@@H]1C[C@@H]2CN(C)C[C@@H]2C1")
116

====

PROTOCOL_NOTES: in vitro
Format: in vitro ADME, mouse and human
APPLIED_CONDITIONS: rat, mouse, human, plasma
MEASURED_ENDPOINT: fraction unbound

>>> obs_value("COc1cc2c(Nc3ccc(Cl)c(Cl)c3F)ncnc2cc1OC[C@@H]1C[C@@H]2CN(C)C[C@@H]2C1")
"0.04 to 0.09"

====

PROTOCOL_NOTES: in vivo
APPLIED_CONDITIONS: male, dog, po, 300 mg/kg
MEASURED_ENDPOINT: Cmax (ng/mL)

>>> obs_value("COc1cc2c(Nc3ccc(Cl)c(Cl)c3F)ncnc2cc1OC[C@@H]1C[C@@H]2CN(C)C[C@@H]2C1 [XL-647]")
936

====

TESTED_SYSTEM: c-Raf (Homo sapiens, UniProt P04049)
Sequence (P04049 whole entry, species assumed): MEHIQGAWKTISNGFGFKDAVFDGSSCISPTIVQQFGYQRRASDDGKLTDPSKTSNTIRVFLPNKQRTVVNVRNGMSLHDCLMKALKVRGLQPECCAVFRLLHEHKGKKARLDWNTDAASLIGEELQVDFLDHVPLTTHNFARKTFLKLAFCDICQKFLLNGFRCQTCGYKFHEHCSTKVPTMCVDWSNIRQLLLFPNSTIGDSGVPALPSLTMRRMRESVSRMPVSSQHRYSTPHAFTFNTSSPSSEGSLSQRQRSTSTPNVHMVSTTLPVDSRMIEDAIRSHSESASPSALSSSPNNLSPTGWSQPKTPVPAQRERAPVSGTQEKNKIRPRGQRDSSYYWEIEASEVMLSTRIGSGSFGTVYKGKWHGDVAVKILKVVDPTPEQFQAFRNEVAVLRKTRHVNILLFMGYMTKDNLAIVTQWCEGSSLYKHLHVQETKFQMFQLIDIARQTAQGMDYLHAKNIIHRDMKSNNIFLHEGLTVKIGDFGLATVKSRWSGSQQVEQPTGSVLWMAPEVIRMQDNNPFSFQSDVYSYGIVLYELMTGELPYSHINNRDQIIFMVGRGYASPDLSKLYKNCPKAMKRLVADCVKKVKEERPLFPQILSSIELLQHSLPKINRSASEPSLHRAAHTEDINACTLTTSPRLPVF
MEASURED_ENDPOINT: IC50

>>> obs_value("COc1cc2c(Nc3ccc(Cl)c(Cl)c3F)ncnc2cc1OC[C@@H]1C[C@@H]2CN(C)C[C@@H]2C1 [XL-647]")
"> 1000 nM"

====

TESTED_SYSTEM: JNK3α (Homo sapiens, UniProt P53779)
Sequence (P53779 whole entry): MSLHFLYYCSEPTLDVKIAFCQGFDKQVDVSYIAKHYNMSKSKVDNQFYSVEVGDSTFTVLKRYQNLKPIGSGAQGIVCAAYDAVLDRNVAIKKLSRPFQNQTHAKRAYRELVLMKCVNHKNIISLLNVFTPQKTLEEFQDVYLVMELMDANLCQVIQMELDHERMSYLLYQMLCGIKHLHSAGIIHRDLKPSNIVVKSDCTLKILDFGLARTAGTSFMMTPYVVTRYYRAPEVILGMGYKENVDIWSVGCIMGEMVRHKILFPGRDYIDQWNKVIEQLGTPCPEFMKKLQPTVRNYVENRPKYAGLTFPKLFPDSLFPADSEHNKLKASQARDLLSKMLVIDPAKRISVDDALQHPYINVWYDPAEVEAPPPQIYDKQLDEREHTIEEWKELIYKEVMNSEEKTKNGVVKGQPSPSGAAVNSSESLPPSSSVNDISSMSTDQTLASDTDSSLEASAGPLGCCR
MEASURED_ENDPOINT: IC50

>>> obs_value("COc1cc2c(Nc3ccc(Cl)c(Cl)c3F)ncnc2cc1OC[C@@H]1C[C@@H]2CN(C)C[C@@H]2C1")
"> 1000 nM"

====

PROTOCOL_NOTES: in vivo
APPLIED_CONDITIONS: rat, po, 2000 mg/kg
MEASURED_ENDPOINT: Cmax

>>> obs_value("COc1cc2c(Nc3ccc(Cl)c(Cl)c3F)ncnc2cc1OC[C@@H]1C[C@@H]2CN(C)C[C@@H]2C1 [XL-647]")
"1690 ng/mL"

Entry source: patent US9364479B2
